- Test system: 317291-083-R-J1-PDC complex spheroid growth;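 further: compound exposure lasted seven days after spheroids formed for three days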
- assay-text: Anticancer human tumor 317291-083-R-J1-PDC patient-derived soft tissue sarcoma cell line growth inhibition [Asc]
- protocol-conditions: curve of first compound; second compound 0.316 µM
assay-readout: IC50 (nM)
Quick reminder: number only, in nM, skip the unit.

molecule	IC50 [nM]
C=C(F)C(=O)N1CCN(c2nc(OCC3CCCN3C)nc3c2CCN(c2cccc4cccc(Cl)c24)C3)CC1CC#N (configuration not stated) + Cc1c(S(C)(=O)=O)c(-c2cc(F)cc(N3CCN(c4ccc(NS(=O)(=O)c5ccc(NC(CCN6CCC(C(=O)OCCCP(=O)(O)O)CC6)CSc6ccccc6)c(S(=O)(=O)C(F)(F)F)c5)cc4)CC3)c2)c(-c2ccc(Cl)cc2)n1C(C)C	1720
Cc1nc(N2CCC3(CC2)COC(C)C3N)c(CO)nc1Sc1ccnc(N)c1Cl (configuration not stated) + Cc1c(S(C)(=O)=O)c(-c2cc(F)cc(N3CCN(c4ccc(NS(=O)(=O)c5ccc(NC(CCN6CCC(C(=O)OCCCP(=O)(O)O)CC6)CSc6ccccc6)c(S(=O)(=O)C(F)(F)F)c5)cc4)CC3)c2)c(-c2ccc(Cl)cc2)n1C(C)C	946
Cn1ncnc1[C@H]1c2n[nH]c(=O)c3cc(F)cc(c23)N[C@@H]1c1ccc(F)cc1 + CNC(C)C(=O)NC1CN(S(=O)(=O)c2cccc(S(=O)(=O)N3CCC4CCC(C(=O)NC(c5ccccc5)c5ccccc5)N4C(=O)C(NC(=O)C(C)NC)C3)c2)CCC2CCC(C(=O)NC(c3ccccc3)c3ccccc3)N2C1=O	1.01
CNC(C)C(=O)NC1CN(S(=O)(=O)c2cccc(S(=O)(=O)N3CCC4CCC(C(=O)NC(c5ccccc5)c5ccccc5)N4C(=O)C(NC(=O)C(C)NC)C3)c2)CCC2CCC(C(=O)NC(c3ccccc3)c3ccccc3)N2C1=O (configuration not stated) + Cc1c(S(C)(=O)=O)c(-c2cc(F)cc(N3CCN(c4ccc(NS(=O)(=O)c5ccc(NC(CCN6CCC(C(=O)OCCCP(=O)(O)O)CC6)CSc6ccccc6)c(S(=O)(=O)C(F)(F)F)c5)cc4)CC3)c2)c(-c2ccc(Cl)cc2)n1C(C)C	176

API: the following record is the query input.
Please give measured IC50 of the following entry: COc1c(OCCCN2CCOCC2)ccc2c3n(c(=NC(=O)c4cnc(N)nc4)nc12)CCN3 + Cc1c(S(C)(=O)=O)c(-c2cc(F)cc(N3CCN(c4ccc(NS(=O)(=O)c5ccc(NC(CCN6CCC(C(=O)OCCCP(=O)(O)O)CC6)CSc6ccccc6)c(S(=O)(=O)C(F)(F)F)c5)cc4)CC3)c2)c(-c2ccc(Cl)cc2)n1C(C)C
88.4

The origin of these recorded values is PubChem BioAssay AID1963427.
